pKi by entry:
- Target of assay: JAK3 (Homo sapiens)
- Sequence (P52333 whole entry): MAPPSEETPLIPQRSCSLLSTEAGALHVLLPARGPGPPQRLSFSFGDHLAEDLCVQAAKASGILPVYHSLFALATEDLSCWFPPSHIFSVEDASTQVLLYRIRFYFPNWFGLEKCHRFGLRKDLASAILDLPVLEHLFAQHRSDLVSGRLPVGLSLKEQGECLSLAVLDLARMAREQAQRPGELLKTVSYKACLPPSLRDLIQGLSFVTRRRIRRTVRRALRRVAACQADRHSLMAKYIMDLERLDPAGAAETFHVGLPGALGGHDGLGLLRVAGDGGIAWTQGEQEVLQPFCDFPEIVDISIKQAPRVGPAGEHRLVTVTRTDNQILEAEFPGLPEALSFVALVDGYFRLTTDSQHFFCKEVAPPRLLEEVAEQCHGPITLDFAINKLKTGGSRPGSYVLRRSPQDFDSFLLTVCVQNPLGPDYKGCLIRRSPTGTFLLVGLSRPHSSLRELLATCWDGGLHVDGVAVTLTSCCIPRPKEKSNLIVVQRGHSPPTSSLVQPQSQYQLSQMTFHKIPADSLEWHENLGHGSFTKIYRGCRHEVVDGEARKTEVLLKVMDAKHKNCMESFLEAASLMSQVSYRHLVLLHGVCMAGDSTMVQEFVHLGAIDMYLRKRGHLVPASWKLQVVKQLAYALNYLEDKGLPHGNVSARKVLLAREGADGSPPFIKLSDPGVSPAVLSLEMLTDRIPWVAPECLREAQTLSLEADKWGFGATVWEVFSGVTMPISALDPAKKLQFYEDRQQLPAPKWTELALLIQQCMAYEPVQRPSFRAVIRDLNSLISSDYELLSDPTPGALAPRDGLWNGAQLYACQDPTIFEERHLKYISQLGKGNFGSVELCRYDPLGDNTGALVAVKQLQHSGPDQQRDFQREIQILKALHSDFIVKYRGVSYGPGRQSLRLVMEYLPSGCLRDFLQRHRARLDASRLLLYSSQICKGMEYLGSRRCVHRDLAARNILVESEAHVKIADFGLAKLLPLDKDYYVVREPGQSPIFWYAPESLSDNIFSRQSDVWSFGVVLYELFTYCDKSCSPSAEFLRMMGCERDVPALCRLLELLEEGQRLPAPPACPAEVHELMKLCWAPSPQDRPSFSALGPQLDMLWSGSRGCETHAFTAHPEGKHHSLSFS
- Protocol summary: JAK3 Inhibition Assay (33P incorporation into poly(Glu)4Tyr)
- Type: biochemical
- Conditions: 1 nM JAK3, 5 μM ATP, 1 μM poly(Glu)4Tyr, 25° C.
pKi: −log10 of the molar value.

CC(C)(Nc1ccnc(-c2cccnc2N)n1)C(=O)NCC(F)(F)F; 5.00 to 6.00
CC(C)(Nc1nc(-c2ccc3nc(N)sc3c2)ncc1F)C(=O)NCC(F)(F)F; 5.00 to 6.00
CNC(=O)c1cc(-c2ncc(F)c(N3CCC[C@@H]3C(=O)NCC(F)(F)F)n2)c[nH]1; 4.30 to 5.00
COc1ccc(-c2nccc(NC(C)(C)C(=O)NCC(F)(F)F)n2)cn1; 4.30 to 5.00
C[C@H](Nc1nc(-n2nc(Nc3ccc(F)cc3)nc2N)ncc1F)C(=O)NCC(F)(F)F; 5.00 to 6.00

Exercise: Given the molecule `CC(C)NC(=O)c1cc(-c2nccc(NC(C)(C)C(=O)NCC(F)(F)F)n2)c[nH]1` , what is its reported pKi?
Solution: 4.30 to 5.00

Exercise: Given the molecule `CC(C)(Nc1ccnc(-c2ccc3ncsc3c2)n1)C(=O)NCC(F)(F)F` , what is its reported pKi?
Solution: ≥ 6.00

Exercise: Given the molecule CC(C)C(Nc1nc(-c2c[nH]c(C(=O)N3CC=CC3)c2)ncc1F)C(=O)NCC(F)(F)F (centres unmarked) , what is its reported pKi?
Solution: ≥ 6.00

This collection of values is drawn from patent US8686143B2.
